Kindly state Selectivity for each of the entries shown.
# measured-on: pre-pro-human insulin

// query Name the reported Selectivity value associated with the protein trypsin variant SEQ ID NO: 71 (protein) IVGGYTCAANSIPYQVSLNSGSHRCGGSLINSQWVVSAAHCYKSRIQVRLGEHNIDVLEGNEQFINAAKIITHPNFNGNTLDNDIMLIKLSSPATLNSRVATVSLPRSCAAAGTECLISGWGNTKSSGSSYPSLLQCLKAPVLSDSSCKSSYPGQITGNMICVGFLEGGKDACQGDSGGPVVCNGQLQGIVSTGYGCAQKNKPGVYTKVCNYVNWIQQTIAAN
// result >62.1%

// query Name the reported Selectivity value associated with the protein trypsin variant SEQ ID NO: 70 (protein) IVGGYTCAANSIPYQVSLNSGSHRCGGSLINSQWVVSAAHCYKSRIQVRLGEHNIDVLEGNEQFINAAKIITHPNFNGNTLDNDIMLIKLSSPATLNSRVATVSLPRSCAAAGTECLISGWGNTKSSGSSYPSLLQCLKAPVLSDSSCKSSYPGQITGNMICVGFLEGGKDACQGDSGGPVVCNGQLQGIVSYGYGCAQKNKPGVYTKVCNYVNWIQQTIAAN
// result >70%

// query Name the reported Selectivity value associated with the protein trypsin variant SEQ ID NO: 61 (protein) IVGGYTCAANSIPYQVSLNSGSHRCGGSLINSQWVVSAAHCYKSRIQVRLGEHNIDVLEGNEQFINAAKIITHPNFNGNTLDNDIMLIKLSSPATLNSRVATVSLPDSCAAAGTECLISGWGNTKSSGSSYPSLLQCLKAPVLSDSSCKSSYPGQITGNMICVGFLEGGKDACQGDSGGPVVCNGQLQGIVSSGYGCAQKNKPGVYTKVCNYVNWIQQTIAAN
// result >80%
